Catalogue of pKi values
# Measured on: hOAT (Homo sapiens)
# Sequence (P04181 36-439 limits assumed): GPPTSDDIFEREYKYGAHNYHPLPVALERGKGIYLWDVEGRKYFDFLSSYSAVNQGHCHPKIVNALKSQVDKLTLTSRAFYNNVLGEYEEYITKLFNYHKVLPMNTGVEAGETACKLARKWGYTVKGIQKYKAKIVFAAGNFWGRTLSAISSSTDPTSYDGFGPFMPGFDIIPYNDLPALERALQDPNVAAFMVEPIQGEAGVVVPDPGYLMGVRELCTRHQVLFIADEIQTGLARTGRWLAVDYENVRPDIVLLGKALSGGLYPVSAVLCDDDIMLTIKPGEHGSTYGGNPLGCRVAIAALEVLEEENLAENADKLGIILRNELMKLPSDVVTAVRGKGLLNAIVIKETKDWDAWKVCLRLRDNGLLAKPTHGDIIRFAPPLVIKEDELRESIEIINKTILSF
pKi: −log10 of the molar value.

{"columns": ["Molecule", "Readout qualifier", "pKi"],
 "data": [
  ["COC(=O)/C(=C1/C[C@H](C(=O)O)C[C@@H]1N)C(F)(F)F.Cl [Compound 11, hydrochloride]", "≤", 2.70],
  ["COC(=O)/C(=C1\\C[C@H](C(=O)O)C[C@@H]1N)C(F)(F)F.Cl [Compound 10, hydrochloride]", "=", 3.89],
  ["N[C@H]1C[C@@H](C(=O)O)CC1=C(C(F)(F)F)C(F)(F)F", "=", 4.28]
]}
